target: HA of ca A/Brit. Columbia/CN-6/04 (H7N3-LP) virus (influenza A virus); assay: cell-based or functional assay
measured_attribute: Neutralization IC50, H7-BC04 (µg/mL)

• Antibody 13 (antibody, V domains shown) VH: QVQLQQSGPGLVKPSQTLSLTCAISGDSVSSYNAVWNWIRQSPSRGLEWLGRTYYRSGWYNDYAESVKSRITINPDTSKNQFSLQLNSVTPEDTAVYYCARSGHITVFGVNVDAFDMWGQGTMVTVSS VL: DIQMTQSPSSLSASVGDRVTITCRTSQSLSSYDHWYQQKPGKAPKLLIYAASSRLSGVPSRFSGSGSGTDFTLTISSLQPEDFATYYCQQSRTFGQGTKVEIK = 0.96
• Antibody 12 (antibody, V domains shown) VH: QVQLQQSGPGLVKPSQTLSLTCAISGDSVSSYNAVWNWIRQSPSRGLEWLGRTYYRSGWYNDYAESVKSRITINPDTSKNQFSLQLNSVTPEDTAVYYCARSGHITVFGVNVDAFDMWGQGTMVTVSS VL: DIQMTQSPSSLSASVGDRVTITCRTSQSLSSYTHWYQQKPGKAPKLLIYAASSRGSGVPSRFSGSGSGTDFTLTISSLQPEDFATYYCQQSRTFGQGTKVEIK = 0.78
• Antibody 14 (antibody, V domains shown) VH: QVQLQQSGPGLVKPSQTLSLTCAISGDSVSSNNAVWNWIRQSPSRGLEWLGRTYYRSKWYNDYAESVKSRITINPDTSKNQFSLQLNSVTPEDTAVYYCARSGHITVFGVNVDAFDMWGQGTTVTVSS VL: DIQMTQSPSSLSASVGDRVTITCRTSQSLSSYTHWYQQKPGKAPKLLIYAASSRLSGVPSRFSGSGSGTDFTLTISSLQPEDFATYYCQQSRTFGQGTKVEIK = 0.86
• Antibody 15 (antibody, V domains shown) VH: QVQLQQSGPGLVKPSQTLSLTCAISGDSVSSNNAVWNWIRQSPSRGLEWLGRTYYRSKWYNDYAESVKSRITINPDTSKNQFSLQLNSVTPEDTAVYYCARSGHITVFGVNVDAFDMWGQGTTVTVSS VL: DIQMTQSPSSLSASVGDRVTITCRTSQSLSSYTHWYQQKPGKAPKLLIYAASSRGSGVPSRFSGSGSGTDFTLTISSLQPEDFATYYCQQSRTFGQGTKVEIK = 1.25
